# ASSAY NAME: Bile pharmacokinetics of 5-FU in rats after whole pelvic irradiation
# Assay type: in vivo, Sprague-Dawley rats
# PROTOCOL CONDITIONS: Sprague-Dawley, rat, iv, 100 mg/kg, 5-FU 100 mg/kg i.v., whole pelvic irradiation 2 Gy
ASSAY READOUT: Cmax (µg/mL)
Numeric only. Scale: µg/mL

QUERY: // Cmax lookup, key: `O=c1[nH]cc(F)c(=O)[nH]1`
RESULT: 93

---

# ASSAY NAME: Bile pharmacokinetics of 5-FU in rats after whole pelvic irradiation
# Format: in vivo, Sprague-Dawley rats
# PROTOCOL CONDITIONS: Sprague-Dawley, rat, iv, 100 mg/kg, 5-FU 100 mg/kg i.v., controls 0 Gy
ASSAY READOUT: Cmax (µg/mL)
Numeric only. Scale: µg/mL

QUERY: // Cmax lookup, key: `O=c1[nH]cc(F)c(=O)[nH]1`
RESULT: 129

---

# ASSAY NAME: Bile pharmacokinetics of 5-FU in rats after whole pelvic irradiation
# Format: in vivo, Sprague-Dawley rats
# PROTOCOL CONDITIONS: Sprague-Dawley, rat, iv, 100 mg/kg, 5-FU 100 mg/kg i.v., whole pelvic irradiation 0.5 Gy
ASSAY READOUT: half-life (min)
Numeric only. Scale: min

QUERY: // half-life lookup, key: `O=c1[nH]cc(F)c(=O)[nH]1`
RESULT: 10.3

---

# ASSAY NAME: Bile pharmacokinetics of 5-FU in rats after whole pelvic irradiation
# Assay type: in vivo, Sprague-Dawley rats
# PROTOCOL CONDITIONS: Sprague-Dawley, rat, iv, 100 mg/kg, 5-FU 100 mg/kg i.v., whole pelvic irradiation 0.5 Gy
ASSAY READOUT: AUC (µg·h/mL)
Numeric only. Scale: µg·h/mL

QUERY: // AUC lookup, key: O=c1[nH]cc(F)c(=O)[nH]1 [5-FU, 5-fluorouracil]
RESULT: 24.6

---

# ASSAY NAME: Plasma pharmacokinetics of 5-FU in rats after whole pelvic irradiation
# Format: in vivo, Sprague-Dawley rats
# PROTOCOL CONDITIONS: Sprague-Dawley, rat, iv, 100 mg/kg, 5-FU 100 mg/kg i.v., controls 0 Gy
ASSAY READOUT: AUC (ng·h/mL)
Numeric only. Scale: ng·h/mL

QUERY: // AUC lookup, key: `O=c1[nH]cc(F)c(=O)[nH]1`
RESULT: 78800

---

# ASSAY NAME: Plasma pharmacokinetics of 5-FU in rats with or without MMP-8 inhibitor before whole pelvic irradiation 2 Gy
# Assay type: in vivo, Sprague-Dawley rats
# PROTOCOL CONDITIONS: Sprague-Dawley, rat, plasma, iv, 100 mg/kg, plasma, 5-FU 100 mg/kg i.v., whole pelvic irradiation 2 Gy with solvent and MMP-8 inhibitor (10 mg/kg, 2 h before irradiation)
ASSAY READOUT: half-life
Answers without a unit are incomplete; give the number and then its unit.

QUERY: // half-life lookup, key: `O=c1[nH]cc(F)c(=O)[nH]1`
RESULT: 32.3 min

---

# ASSAY NAME: Plasma pharmacokinetics of 5-FU in rats after whole pelvic irradiation
# Type: in vivo, Sprague-Dawley rats
# PROTOCOL CONDITIONS: Sprague-Dawley, rat, iv, 100 mg/kg, 5-FU 100 mg/kg i.v., controls 0 Gy
ASSAY READOUT: clearance (mL/min/kg)
Numeric only. Scale: mL/min/kg

QUERY: // clearance lookup, key: `O=c1[nH]cc(F)c(=O)[nH]1`
RESULT: 21.3

src = paper PMC3111455
